Assay: Caspase-3/7 induction in HepG2 cells by small molecules, qHTS assay (AID 1346978); note: nearly all actives have a fitted effect of over 15% in size
Conditions: HepG2 caspase-3/7 activation, Caspase-Glo luminescence, 17 h; series mostly up to 92.4 µM
Inconclusive results are not listed. Activity calls are given as the source filed them. Calls come from the whole dose curve; as a rule, active = well fitted activation curve with a large enough effect in the repeat runs; inconclusive = weak or mixed curves; inactive = flat fitted curve, though single readings scatter.
Measured Metric: outcome

[[record]]
compound = "CC(C)(c1ccc(OCC2CO2)cc1)c1ccc(OCC2CO2)cc1 (stereo not drawn)"
result = "inactive"

[[record]]
compound = "O=C1C(Cl)=C(Cl)C(=O)c2ccccc21"
result = "inactive"

[[record]]
compound = "C=C(C)C#N"
result = "inactive"

[[record]]
compound = "CC(C)(O)C#N"
result = "inactive"

[[record]]
compound = "COc1ccc(O)c(C(C)(C)C)c1"
result = "inactive"

[[record]]
compound = "CNC(=O)Oc1cccc2c1OC(C)(C)C2"
result = "inactive"


Ask: Read the entry `CN(C)c1nc(=O)n(C2CCCCC2)c(=O)n1C` and write its reported outcome.
Result: inactive

Ask: Read the entry `ClCc1ccccn1` and write its reported outcome.
Result: inactive

Ask: Read the entry `CCC[CH2][Sn]([Cl])([Cl])[CH2]CCC` and write its reported outcome.
Result: inactive

Ask: Read the entry N#Cc1nn(-c2c(Cl)cc(C(F)(F)F)cc2Cl)c(N)c1S(=O)C(F)(F)F (stereo not drawn) and write its reported outcome.
Result: inactive

Ask: Read the entry `C[C@]12CC[C@H]3[C@@H](CCC4=CC(=O)CC[C@@H]43)[C@@H]1CC[C@@H]2O` and write its reported outcome.
Result: inactive

Ask: Read the entry `Nc1ccc([N+](=O)[O-])cc1N` and write its reported outcome.
Result: inactive

Ask: Read the entry `CCNc1nc(Cl)nc(NC(C)(C)C#N)n1` and write its reported outcome.
Result: inactive

====

Assay: qHTS assay to identify small molecule antagonists of the retinoic acid receptor (RAR) signaling pathway (AID 1159552; note: nearly all actives have a fitted effect of over 50% in size)
Conditions: C3RL4 RARE luciferase reporter, retinol-stimulated, 6 h; series mostly up to 92.4 µM
Inconclusive results are not listed. Active and inactive are the calls of the source. The call rests on the fitted dose curve; in most records, active means well fitted inhibition curve with a large enough effect in the repeat runs; inconclusive means weak or mixed curves, or effect the other way; inactive means no such curve, though single readings can be large or run the other way.
Could you please pick one outcome from this set? Yes for active, No for inactive

Ask: Could you please tell me the result logged for `CCOP(=O)(OCC)OCC` in this assay?
Result: No

Ask: Could you please tell me the result logged for `CSc1nc(NC(C)C)nc(NC(C)C)n1` in this assay?
Result: No

Ask: Could you please tell me the result logged for `ClC(Cl)(Cl)Br` in this assay?
Result: No

Ask: Could you please tell me the result logged for `COc1ccc(C=O)cc1OC` in this assay?
Result: No

Ask: Could you please tell me the result logged for `Clc1cccc(Cl)c1` in this assay?
Result: No

Ask: Could you please tell me the result logged for `C[C@]12CC[C@H]3[C@@H](CCC4=CC(=O)CC[C@@H]43)[C@@H]1CC[C@@H]2O` in this assay?
Result: Yes

Ask: Could you please tell me the result logged for `CC1=C(C(=O)Nc2ccccc2)SCCO1` in this assay?
Result: No

Ask: Could you please tell me the result logged for `CCCCCCCCCc1ccc(O)cc1` in this assay?
Result: No

Ask: Could you please tell me the result logged for CC1(C)C(C(=O)OC(C#N)c2cccc(Oc3ccccc3)c2)C1(C)C (stereo not given) in this assay?
Result: No

Ask: Could you please tell me the result logged for `CC(C)(c1ccccc1)c1ccc(O)cc1` in this assay?
Result: Yes

Ask: Could you please tell me the result logged for `CC(C)(O)C#N` in this assay?
Result: No

Ask: Could you please tell me the result logged for `CC(C)(C#N)N=NC(C)(C)C#N` in this assay?
Result: No

Ask: Could you please tell me the result logged for `CC(C)CON=O` in this assay?
Result: No

Ask: Could you please tell me the result logged for `CC(C)COC(=O)c1ccccc1C(=O)OCC(C)C` in this assay?
Result: No

Ask: Could you please tell me the result logged for `N#CC(c1ccccc1)c1ccccc1` in this assay?
Result: No

The values you see were collected from PubChem BioAssay (Tox21).
